Tested on: T-47D
EXPERIMENT SUMMARY: Antiproliferative SRB assay (NCI protocol), T-47D
Format: cell-based, human
REPORTED CONDITIONS: CC50 splenocytes / GI50 T-47D
METRIC: Selectivity index (SI) on tumor cells

Use the examples below as a reference point.
1. C=C(C(=O)N(c1ccccc1)C(C)(C)C(=O)NC(C)(C)C)C1CCC2(C)CCCC(C)(O)C2C1 (stereo not shown) :: 2.2
2. C=C(C(=O)N(c1ccccc1)C(C)(C)C(=O)NCc1ccccc1)[C@@H]1CCC2=CC(=O)C[C@H](C)[C@@]2(C)C1 :: 3.5
3. C=C(Cn1cc(Cc2ccccc2)nn1)[C@@H]1CC[C@@]2(C)CCC[C@@](C)(O)C2C1 (stereo partly shown) :: 1.4
4. C=C(C(=O)N(c1ccccc1)C(C)(C)C(=O)NCc1ccccc1)C1CCC2(C)CCCC(C)(O)C2C1 (stereo not shown) :: 3.2
5. C=C(C(=O)N(c1ccccc1)C(C)(C)C(=O)NC1CCCCC1)C1CCC2(C)CCCC(C)(O)C2C1 (stereo not shown) :: >17

Which Selectivity index (SI) on tumor cells reading was recorded for the molecule C=C(C(=O)N(Cc1ccccc1)C(C)(C)C(=O)NCc1ccccc1)C1CCC2(C)CCCC(C)(O)C2C1 (stereo not shown) ?
2.5

Which Selectivity index (SI) on tumor cells reading was recorded for the molecule C=C(C(=O)N(Cc1ccccc1)C(C)(C)C(=O)NC1CCCCC1)[C@@H]1CCC2=CC(=O)C[C@H](C)[C@@]2(C)C1 ?
3.6

====

EXPERIMENT SUMMARY: Cytotoxicity on primary cell culture (flow cytometry, PI)
Format: cell-based
REPORTED CONDITIONS: Balb/c, mouse, primary splenocytes (spleen cells), ± SD, read-out: Cytotoxic activity on spleen cells (CC50)
Protocol: The cytotoxicity of the natural sesquiterpenes (1–3) and derivatives (4–19) was determined on primary cell cultures (splenocytes obtained from Balb/c mouse). […] The cytotoxicity of the compounds was evaluated on splenocytes obtained from Balb/c mouse (1.5 × 10^5) and incubated with different drug dilutions (5–200 μg/mL) as previously described. Cell death was determined by flow cytometry using a BD FACSaria II cytometer. […]
Rule: CC50 below 40 µM gives t, anything at or above gives f.

1. C=C(C(=O)N(c1ccccc1)C(C)(C)C(=O)NC(C)(C)C)[C@@H]1CCC2=CC(=O)C[C@H](C)[C@@]2(C)C1 [Compound 4] :: t

Lab log: compare recorded CC50 with 40 µM; is it strictly lower for C=C(C(=O)N(c1ccccc1)C(C)(C)C(=O)NC1CCCCC1)C1CCC2(C)CCCC(C)(O)C2C1 (stereo not shown) [Compound 14] ?
f

Lab log: compare recorded CC50 with 40 µM; is it strictly lower for C=C(C(=O)N(Cc1ccccc1)C(C)(C)C(=O)NCc1ccccc1)[C@@H]1CCC2=CC(=O)C[C@H](C)[C@@]2(C)C1 [Compound 7] ?
t

Lab log: compare recorded CC50 with 40 µM; is it strictly lower for C=C(Cn1cc(Cc2ccccc2)nn1)[C@@H]1CC[C@@]2(C)CCC[C@@](C)(O)C2C1 (stereo partly shown) [Compound 18] ?
f

Lab log: compare recorded CC50 with 40 µM; is it strictly lower for C=C(C(=O)N(c1ccccc1)C(C)(C)C(=O)NCc1ccccc1)C1CCC2(C)CCCC(C)(O)C2C1 (stereo not shown) [Compound 12] ?
f

Lab log: compare recorded CC50 with 40 µM; is it strictly lower for C=C(C(=O)N(c1ccccc1)C(C)(C)C(=O)NC1CCCCC1)[C@@H]1CCC2=CC(=O)C[C@H](C)[C@@]2(C)C1 [Compound 8] ?
t

Lab log: compare recorded CC50 with 40 µM; is it strictly lower for C=C(C(=O)N(c1ccccc1)C(C)(C)C(=O)NCc1ccccc1)[C@@H]1CCC2=CC(=O)C[C@H](C)[C@@]2(C)C1 [Compound 6] ?
f

Lab log: compare recorded CC50 with 40 µM; is it strictly lower for C=C(C(=O)O)[C@@H]1CCC2=CC(=O)C[C@H](C)[C@@]2(C)C1 [Compound 1, tessaric acid] ?
f

Lab log: compare recorded CC50 with 40 µM; is it strictly lower for C=C(Cn1cc(CCCCCCCCCC)nn1)[C@@H]1CC[C@@]2(C)CCC[C@@](C)(O)C2C1 (stereo partly shown) [Compound 16] ?
f

Lab log: compare recorded CC50 with 40 µM; is it strictly lower for C=C(Cn1cc(-c2ccccc2)nn1)[C@@H]1CC[C@@]2(C)CCC[C@@](C)(O)C2C1 (stereo partly shown) [Compound 19] ?
f

Lab log: compare recorded CC50 with 40 µM; is it strictly lower for C=C(C(=O)N(Cc1ccccc1)C(C)(C)C(=O)NC(C)(C)C)[C@@H]1CCC2=CC(=O)C[C@H](C)[C@@]2(C)C1 [Compound 5] ?
f

Lab log: compare recorded CC50 with 40 µM; is it strictly lower for C=C(C(=O)N(Cc1ccccc1)C(C)(C)C(=O)NC1CCCCC1)[C@@H]1CCC2=CC(=O)C[C@H](C)[C@@]2(C)C1 [Compound 9] ?
f
